The measured values listed here are drawn from ChEMBL document CHEMBL4742395.

# ASSAYED_SYSTEM: Cyclin-dependent kinase 13 (Homo sapiens)
# Sequence (Q14004 whole entry): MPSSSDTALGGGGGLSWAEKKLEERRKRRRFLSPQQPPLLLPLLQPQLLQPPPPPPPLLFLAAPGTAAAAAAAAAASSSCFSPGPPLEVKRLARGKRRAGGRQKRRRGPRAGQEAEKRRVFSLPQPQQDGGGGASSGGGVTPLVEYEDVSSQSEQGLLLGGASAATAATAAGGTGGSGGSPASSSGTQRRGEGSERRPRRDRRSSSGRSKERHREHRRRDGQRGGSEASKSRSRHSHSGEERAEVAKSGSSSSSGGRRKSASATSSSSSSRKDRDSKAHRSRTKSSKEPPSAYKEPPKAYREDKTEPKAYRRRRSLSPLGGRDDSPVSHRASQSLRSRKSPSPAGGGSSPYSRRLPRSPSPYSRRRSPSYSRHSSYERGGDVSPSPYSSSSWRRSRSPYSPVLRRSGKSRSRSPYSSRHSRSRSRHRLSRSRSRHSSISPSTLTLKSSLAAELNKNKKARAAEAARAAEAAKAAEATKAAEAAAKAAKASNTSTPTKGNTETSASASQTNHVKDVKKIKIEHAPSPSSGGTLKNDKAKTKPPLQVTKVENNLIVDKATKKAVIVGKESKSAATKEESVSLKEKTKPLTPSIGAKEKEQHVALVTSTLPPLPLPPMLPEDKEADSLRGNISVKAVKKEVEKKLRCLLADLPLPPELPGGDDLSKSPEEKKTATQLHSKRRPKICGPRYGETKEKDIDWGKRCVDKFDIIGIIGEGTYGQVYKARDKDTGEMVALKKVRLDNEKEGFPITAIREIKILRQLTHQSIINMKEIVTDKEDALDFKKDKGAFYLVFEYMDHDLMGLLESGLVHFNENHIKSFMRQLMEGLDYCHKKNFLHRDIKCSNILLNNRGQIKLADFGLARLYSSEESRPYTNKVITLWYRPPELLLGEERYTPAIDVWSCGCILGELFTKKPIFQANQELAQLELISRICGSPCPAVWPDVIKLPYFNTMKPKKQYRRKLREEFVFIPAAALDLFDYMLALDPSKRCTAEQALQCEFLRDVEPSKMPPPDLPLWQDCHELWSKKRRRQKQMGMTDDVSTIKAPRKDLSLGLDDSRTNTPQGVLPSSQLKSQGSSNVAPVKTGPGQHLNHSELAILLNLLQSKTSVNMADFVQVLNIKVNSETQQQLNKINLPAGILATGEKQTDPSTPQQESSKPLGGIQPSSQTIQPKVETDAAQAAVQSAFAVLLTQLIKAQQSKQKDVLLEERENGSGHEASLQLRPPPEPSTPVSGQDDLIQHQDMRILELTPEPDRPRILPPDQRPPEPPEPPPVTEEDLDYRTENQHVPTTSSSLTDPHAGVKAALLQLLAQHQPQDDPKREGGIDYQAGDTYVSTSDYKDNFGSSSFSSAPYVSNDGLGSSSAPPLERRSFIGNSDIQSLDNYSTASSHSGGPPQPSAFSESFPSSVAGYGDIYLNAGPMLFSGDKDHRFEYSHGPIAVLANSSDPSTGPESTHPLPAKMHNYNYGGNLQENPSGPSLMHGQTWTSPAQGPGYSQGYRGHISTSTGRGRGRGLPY
With a cut-off of 6 nM, any IC50 strictly below it is called true; any IC50 meeting it or above is called false.

Quick check: does C=CC(=O)N1CCC=C(c2ccc(C(C(=O)Nc3cc(C4CC4)[nH]n3)C(C)C)cc2)C1 (stereo not given) have IC50 under 6 nM?
false

Ok, now C=CC(=O)N1CCC=C(c2ccc(CC(=O)Nc3cc(C4CC4)[nH]n3)cn2)C1
true

Ok, now CCN(CC)C/C=C/C(=O)N1CC=C(c2ccc([C@H](C)C(=O)Nc3cc(C4CC4)[nH]n3)cc2)CC1
false

Ok, now CC#CC(=O)N1CCC=C(c2ccc(CC(=O)Nc3cc(C4CC4)[nH]n3)cn2)C1
true
